As shown below, each of these variants has a reported folding stability dG value.
B1: HEEH_KT_rd6_0790 (parent)
chain: SEEEEEEWRRAKERGEEIIILGILWKPNDEEAERRIKEALRRV

Variants of: B1
Experiment: folding stability dG (cDNA display proteolysis); higher = more stable
Details: PBS, room temperature
reportedMetric: folding stability dG (kcal/mol)

- mutantId: "K12P"
  result: 1.02
- mutantId: "K12D"
  result: 1.06
- mutantId: "E6I"
  result: 1.77
- mutantId: "E16I"
  result: 2.21
- mutantId: "R35T"
  result: 1.5
- mutantId: "W25V"
  result: 0.885
- mutantId: "N28M"
  result: 1.77
- mutantId: "R34C"
  result: 2.5
- mutantId: "A39T"
  result: 1.31
- mutantId: "E16P"
  result: 1.15
- mutantId: "E17K"
  result: 1.74
- mutantId: "R9Q"
  result: 1.96
- mutantId: "E33G"
  result: 1.49
- mutantId: "E38G"
  result: 1.46
- mutantId: "L21S"
  result: 1.24
- mutantId: "L21Y"
  result: 1.45
- mutantId: "L40N"
  result: 0.57
- mutantId: "E5F"
  result: 2.13
